Could you please report measured log10(IC50) for the items listed next?
Target: human PRMT3 (Homo sapiens)
Sequence (O60678 with tags, fused parts or gaps): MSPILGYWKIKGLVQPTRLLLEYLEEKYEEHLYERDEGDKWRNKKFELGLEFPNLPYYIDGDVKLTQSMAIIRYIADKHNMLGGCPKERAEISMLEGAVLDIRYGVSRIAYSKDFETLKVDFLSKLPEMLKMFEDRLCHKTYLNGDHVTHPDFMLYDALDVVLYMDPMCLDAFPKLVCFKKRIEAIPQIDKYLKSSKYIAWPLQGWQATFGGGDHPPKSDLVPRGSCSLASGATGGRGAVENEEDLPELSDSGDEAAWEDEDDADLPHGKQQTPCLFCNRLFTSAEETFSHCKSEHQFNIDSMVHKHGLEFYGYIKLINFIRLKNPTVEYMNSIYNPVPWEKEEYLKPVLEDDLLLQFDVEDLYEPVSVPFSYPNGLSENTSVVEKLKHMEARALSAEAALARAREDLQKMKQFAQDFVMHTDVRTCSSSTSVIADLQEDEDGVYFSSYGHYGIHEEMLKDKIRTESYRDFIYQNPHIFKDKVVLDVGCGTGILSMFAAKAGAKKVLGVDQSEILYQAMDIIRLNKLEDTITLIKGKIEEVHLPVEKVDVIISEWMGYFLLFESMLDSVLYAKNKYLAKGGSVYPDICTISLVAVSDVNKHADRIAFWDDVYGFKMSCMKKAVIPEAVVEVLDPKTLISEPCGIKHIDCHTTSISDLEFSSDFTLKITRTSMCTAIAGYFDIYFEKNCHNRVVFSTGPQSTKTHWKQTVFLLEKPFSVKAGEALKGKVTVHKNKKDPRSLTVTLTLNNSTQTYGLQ
Reminder: these figures are log10 of reported IC50, in µM before transformation.

1. CN(CCN)Cc1c[nH]nc1-c1ccc(F)cc1Cl = 0.98
2. CN(CCN)Cc1c[nH]nc1-c1ccc(OC2CC2)cc1 = 0.51
3. CN(CCN)Cc1c[nH]nc1-c1ccc(F)cc1 = 0.42

Report log10(IC50) for every entry below.
1. CN(CCN)Cc1c[nH]nc1-c1ccccc1C#N
2. CN(CCN)Cc1c[nH]nc1-c1ccc(N2CCNCC2)cc1
3. CNCCN(C)Cc1c[nH]nc1-c1ccc(Oc2ccccc2)cc1
4. Cc1cc(F)ccc1-c1n[nH]cc1CN(C)CCN
5. CNCCN(C)Cc1c[nH]nc1-c1cccc(N)c1
6. CN(CCN)Cc1n[nH]cc1-c1ccc(Cl)cc1
7. CNCCN(C)Cc1c[nH]nc1-c1ccc(F)cc1

Found:
0.72
0.20
-0.60
0.98
0.44
0.79
0.65

Report log10(IC50) for every entry below.
1. Cc1c(F)cccc1-c1n[nH]cc1CN(C)CCN
2. CNCCN(C)Cc1cn[nH]c1-c1ccc(C#N)cc1
3. Cc1ccc(-c2n[nH]cc2CN(C)CCN)c(F)c1
4. CNCCN(C)Cc1c[nH]nc1-c1ccc(C(=O)c2ccccc2)cc1
5. CN(CCN)Cc1c[nH]nc1-c1cc(Cl)cc(Cl)c1

Found:
1. 1.00
2. 0.45
3. 1.00
4. 0.74
5. 0.88
